Cited source for all entries: ChEMBL document CHEMBL1128727

Consider the following compounds and their measured pKi readings.
- system-under-test: Plasminogen (Homo sapiens, UniProt P00747)
- Sequence (P00747 97-580 limits assumed): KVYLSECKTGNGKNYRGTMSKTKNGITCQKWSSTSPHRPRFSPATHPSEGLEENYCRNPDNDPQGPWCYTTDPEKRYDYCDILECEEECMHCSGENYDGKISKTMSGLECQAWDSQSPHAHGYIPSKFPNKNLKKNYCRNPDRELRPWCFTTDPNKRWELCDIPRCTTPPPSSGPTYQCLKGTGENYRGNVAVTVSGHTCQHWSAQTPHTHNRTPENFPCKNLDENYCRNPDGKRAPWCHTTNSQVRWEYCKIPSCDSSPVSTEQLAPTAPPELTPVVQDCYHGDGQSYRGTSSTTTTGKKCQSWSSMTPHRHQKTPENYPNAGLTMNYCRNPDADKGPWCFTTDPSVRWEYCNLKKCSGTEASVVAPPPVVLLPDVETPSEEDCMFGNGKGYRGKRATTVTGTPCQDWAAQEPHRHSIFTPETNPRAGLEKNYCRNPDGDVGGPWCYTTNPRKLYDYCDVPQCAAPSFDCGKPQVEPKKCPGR
- Sequence (P00747 581-810 limits assumed): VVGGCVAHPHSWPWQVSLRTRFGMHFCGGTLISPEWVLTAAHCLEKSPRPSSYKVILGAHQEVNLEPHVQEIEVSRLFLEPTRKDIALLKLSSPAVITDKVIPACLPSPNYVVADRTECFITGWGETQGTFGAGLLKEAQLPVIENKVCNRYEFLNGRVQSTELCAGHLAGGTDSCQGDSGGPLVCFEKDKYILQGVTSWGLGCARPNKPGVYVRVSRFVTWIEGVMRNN
- assay-summary: Binding affinity against plasmin
pKi: −log10 of the molar value.
experimental-readout: pKi

* COCCC[C@@H](NC(=O)[C@@H]1CCCN1C(=O)[C@@H](Cc1ccccc1)NC(=O)OCc1ccccc1)B1O[C@@H]2CC3CC(C3(C)C)[C@]2(C)O1 (stereo in doubt; 9a) | 5.11
* CCCCCC(NC(=O)[C@@H]1CCCN1C(=O)[C@H](Cc1ccccc1)NC(=O)OCc1ccccc1)B1O[C@@H]2CC3CC(C3(C)C)[C@]2(C)O1 (stereo in doubt; 3) | 5.54
* CCC(C)(C)C(NC(=O)[C@@H]1CCCN1C(=O)[C@H](Cc1ccc2ccccc2c1)NC(=O)OCc1ccccc1)B1O[C@@H]2CC3CC(C3(C)C)[C@]2(C)O1 (stereo partly drawn) | 4.89
